system: CU-ACC1; experiment: AC50 viability; higher = less potent; conditions: 48 h
Experimental Readout: AC50 viability (µM)
One number for each entry, in µM.

For orientation, consider the following solved cases.
| Compound | AC50 viability / µM |
| --- | --- |
| N#CC1(c2cccc(C(=O)Nc3cc(Oc4ccc5nc(NC(=O)C6CC6)sc5n4)ccc3F)c2Cl)CC1 | 4.17 |
| NC(=O)c1cnc(N[C@@H]2CCCC[C@@H]2N)nc1Nc1cccc(-n2nccn2)c1 | 23.5 |
| NCC1CCN(c2nccc(-c3ccc4ccccc4c3)n2)CC1 | 23.5 |
| COc1cc(F)c(F)c(Nc2ccc(I)cc2F)c1N[S+](=O)([O-])C1(C[C@H](O)CO)CC1 | 16.6 |
| c1ccc2c(CCNc3ccc(Nc4ccncc4)cc3)c[nH]c2c1 | 5.9 |
| CCC(=O)N[C@H]1CC[C@H](C(=O)N(C)c2ccc(-c3nc4ccccc4o3)cc2)C1 | 23.5 |
| CN1\C=N/C2=CC=C(NC3=CC(=CC=C3C)NC(=O)C4=CC(=CC=C4)C(C)(C)C#N)C=C2C1=O | 0.0934 |
| CO[C@H]1CC[C@H](N2C(=O)CNc3ncc(-c4ccc(C(C)(C)O)nc4)nc32)CC1 | 16.6 |

Count: 7. Required value per item: AC50 viability.
1. COc1cccc2c(NCc3ccccc3)nc(-n3c(N)nc4ccccc43)nc12
2. CC[C@@]1(O)C[C@H](O[C@H]2C[C@H](N(C)C)[C@H](O[C@H]3C[C@H](O)[C@H](O[C@H]4CCC(=O)[C@H](C)O4)[C@H](C)O3)[C@H](C)O2)c2c(cc3c(c2O)C(=O)c2c(O)cccc2C3=O)[C@H]1C(=O)OC
3. C[C@@H]\1CC(=O)N\N=C1C2=CC=C(NN=C(C#N)C#N)C=C2
4. CCCCCCC(C)(C)C1=CC2=C([C@H]3CC(=C/CC3C(C)(C)O2)\CO)C(=C1)O (some centres undefined)
5. CC(C)(O)CC(=O)NCCn1ccc2ncnc(Nc3ccc(Oc4cccc(C(F)(F)F)c4)c(Cl)c3)c21
6. c1cc(Nc2cc(C3CC3)n[nH]2)nc(Nc2ccc3nc[nH]c3c2)n1
7. CN(Cc1ccc(/C=C/C(=O)NO)cc1)CC12CC3CC(CC(C3)C1)C2

1. 3.32
2. 23.5
3. 11.8
4. 5.9
5. 20.9
6. 1.05
7. 1.05

Count: 7. Required value per item: AC50 viability.
1. Cc1c(CN2CCN(C(=O)[C@H](C)O)CC2)sc2c(N3CCOCC3)nc(-c3cnc(N)nc3)nc12
2. CCc1c(C(=O)NNC(=O)[C@@H](O)c2cc(F)cc(F)c2)ccc(O)c1C
3. C[C@H]1O[C@H](C[C@H](O)[C@@H]1O)O[C@H]2[C@@H](O)C[C@@H](O[C@@H]2C)O[C@H]3[C@@H](O)C[C@@H](O[C@@H]3C)O[C@H]4CC[C@@]5(C)[C@H](CC[C@@H]6[C@@H]5C[C@@H](O)[C@]7(C)[C@H](CC[C@]67O)C/8=C/C(=O)OC8)C4
4. O=C(/C=C\n1cnc(-c2cc(C(F)(F)F)cc(C(F)(F)F)c2)n1)NNc1cnccn1
5. CN(NC(=O)CC(=O)NN(C)C(=S)c1ccccc1)C(=S)c1ccccc1
6. Cc1n[nH]c2ccc(-c3cncc(OC[C@@H](N)Cc4ccccc4)c3)cc12
7. COc1ccc(-c2nc(N3CCOCC3)c3sc(CN(C)c4ncc(C(=O)NO)cn4)cc3n2)cn1

1. 0.0295
2. 26.3
3. 0.0372
4. 20.9
5. 3.72
6. 1.48
7. 0.0417

Count: 2. Required value per item: AC50 viability.
1. C/C=C1\NC(=O)[C@H]2CSSCC/C=C\[C@H](CC(=O)N[C@H](C(C)C)C(=O)N2)OC(=O)[C@H](C(C)C)NC1=O
2. N[C@@H](Cc1ccc(N(CCCl)CCCl)cc1)C(=O)O

[0.00742, 10.5]

----------
Would you kindly list area under concentration-response curve for each of these molecules?
system: NCI-H295R; test: area under concentration-response curve (viability) (AUC (a.u.)); higher = less active; conditions: 48 h
Numbers only.

For orientation, consider the following solved cases.
| Molecule | area under concentration-response curve |
| --- | --- |
| CC1=CC(=O)c2ccccc2C1=O | 501 |
| CC[C@@]1(O)C(=O)OC\C2=C1\C=C\3N(CC4=C3N=C5C=CC=CC5=C4)C2=O | 443 |
| C[C@@H]1CCNC(=O)c2cc3ccc(C(=O)Nc4nc5ccccc5n4CCCN(C)C)cc3n21 | 553 |
| COc1cc(O)c2c(c1)C1OC1C[C@H](O)[C@H](O)C(=O)/C=C\C[C@H](C)OC2=O (stereo not given in full) | 435 |

Count: 6. Required value per item: area under concentration-response curve.
1. COc1ccc(COc2cc3oc(=O)c4cc(C(C)O)ccc4c3cc2OC)cc1 (stereo not given)
2. O=C(NCCCNc1nc(Nc2ccc(N3CCOCC3)cc2)ncc1C1CC1)C1CCC1
3. COc1cc(C[C@@H](CO)[C@H](CO)Cc2ccc(O)c(OC)c2)ccc1O
4. O=C(NCc1ccncc1)C12C[C@H]3C[C@@H](C1)CC(c1ccc(Cl)cc1)(C3)C2
5. CN1C(=O)C(=C\C2=C1N=C(NC3=CC=CC(=C3)C(O)=O)N=C2)/C4=C(Cl)C=CC=C4Cl
6. OC(=O)/C1=C/CCN(CCOC(C2=CC=C(C=C2)C(F)(F)F)C3=CC=C(C=C3)C(F)(F)F)C1

466
460
517
468
483
569

----------
system: CU-ACC2; assay: area under concentration-response curve (viability) (AUC (a.u.)); higher = less active; settings: 48 h
Would you kindly list area under concentration-response curve for each of these compounds?
Numbers only.

For orientation, consider the following solved cases.
| Compound | area under concentration-response curve |
| --- | --- |
| O=[N+]([O-])c1cnc(Sc2nnc(O)n2-c2ccc3c(c2)OCCO3)s1 | 611 |
| Nc1c2c(nc3ccccc13)CCCC2 | 653 |
| COc1cc(C(C)C)c(Oc2cnc(NC(CO)CO)nc2N)cc1I | 661 |

Count: 2. Required value per item: area under concentration-response curve.
1. N/C1=N/C(=O)C/2=C(NC[C@@H](CNC3=CC=C(C=C3)C(=O)N[C@@H](CCC([O-])=O)C([O-])=O)N2C=O)\N1
2. Fc1ccc(-c2csc3ncnc(NCc4ccc5c(c4)OCO5)c23)cc1

[552, 532]

Count: 2. Required value per item: area under concentration-response curve.
1. CC(=O)Nc1ccc(C(=O)NC(C)(C)C)cc1
2. NC12CC3CC(CC(C3)C1)C2

247
509

----------
tested on: NCI-H295R; assay: AC50 viability; higher = less potent; conditions: 48 h
Experimental Readout: AC50 viability (µM)
One number for each entry, in µM.

For orientation, consider the following solved cases.
| Compound | Test Target | AC50 viability (µM) |
| --- | --- | --- |
| CC[C@@H](C)Nc1cc(C(=O)NC2CC3CC[C@@H](C2)N3c2ccc(C(=O)C3CC3)cn2)c(C)cc1C(N)=O (stereo partly specified) | NCI-H295R | 0.59 |
| Cc1cc(Nc2ncc(Cl)c(Nc3ccccc3[S+](=O)([O-])C(C)C)n2)c(OC(C)C)cc1C1CCNCC1 | NCI-H295R | 5.9 |
| CCc1cc(C(N)=O)ccc1-n1nc(C(C)C)c2c(-n3cnc(-c4cnn(C)c4)c3)ccnc21 | NCI-H295R | 9.34 |

Count: 5. Required value per item: AC50 viability.
1. Cc1nc(NC(=O)N2CCC[C@H]2C(N)=O)sc1-c1ccnc(C(C)(C)C(F)(F)F)c1
2. Cc1cnc(Nc2ccc(F)cc2Cl)nc1-c1c[nH]c(C(=O)N[C@H](CO)c2cccc(Cl)c2)c1
3. NC(=O)c1ccccc1Nc1ccnc(Nc2cccc(O)c2)n1
4. Cc1cc(F)c(C(=O)Nc2cccc(-c3nncn3C(C)C)n2)cc1-n1cnc(C2CC2)c1
5. N=c1c2c(-c3ccccc3)c(-c3ccccc3)n(Cc3ccccc3)c2ncn1[C@H]1CC[C@H](O)CC1

1: 18.6; 2: 26.3; 3: 2.63; 4: 18.6; 5: 18.6

----------
Would you kindly list area under concentration-response curve for each of these compounds?
tested on: CU-ACC2; test: area under concentration-response curve (viability) (AUC (a.u.)); higher = less active; conditions: 48 h

For orientation, consider the following solved cases.
| Compound | area under concentration-response curve |
| --- | --- |
| CC(C)N(C[C@H]1O[C@@H](n2cnc3c(N)ncnc32)[C@H](O)[C@@H]1O)[C@H]1C[C@@H](CCc2nc3cc(C(C)(C)C)ccc3[nH]2)C1 | 598 |
| CCN([C@H]1CC[C@@H](CC1)N(C)CCOC)C2=C(C)C(=CC(=C2)C#CCN3CCOCC3)C(=O)NC\C4=C(C)\C=C(\C)NC4=O | 500 |
| O=C(O)c1ccc(O)c2ncc(N3CCOCC3)cc12 | 525 |
| C[C@H]1CC[C@H](n2c3cnccc3c3cnc(Nc4ccc5c(n4)CCN(C(=O)CO)C5)nc32)CC1 | 622 |
| CNC(=O)[C@H](Cc1ccccc1)NC(=O)[C@H](CC(C)C)[C@H](CSc1cccs1)C(=O)NO | 596 |

Count: 2. Required value per item: area under concentration-response curve.
1. O=C(Nc1ccccc1Br)N[C@@H]1CCN(c2ccc(C(F)(F)F)cn2)C1
2. NC1(C(=O)N[C@@H](CCO)c2ccc(Cl)cc2)CCN(c2ncnc3[nH]ccc23)CC1

1: 575; 2: 515
